# target_or_test_system: EP3 receptor (Homo sapiens, UniProt P43115)
# Construct: purchased Millipore HTS092M
# method_notes: [3H]-PGE2 binding assay (EP3 competition binding)
# particulars: read-out: [3H]-PGE2 Binding Ki
property_name: pKi
Formally, pKi is defined as -log10 of the concentration c, with c in mol/L.

Report pKi, nothing else, for this molecule: O=C1NC(=O)C2(CCCC(c3ccc(-c4ccc5ccccc5c4)[nH]c3=O)C2)O1 (stereo not shown) [compound 188]
7.82

Report pKi, nothing else, for this molecule: CC(C)C(Cc1ccc(-c2ccc3cccc(F)c3c2)[nH]c1=O)c1ncc[nH]1 (stereo not shown) [compound 307]
7.28

Report pKi, nothing else, for this molecule: CCn1ncc2c(F)cc(-c3ccc(C(CC)(CC)Cc4ncc[nH]4)c(=O)[nH]3)cc21 [compound 20]
7.96

Report pKi, nothing else, for this molecule: CC1(c2ccc(-c3ccc4ccccc4c3)[nH]c2=O)CNC(=S)N1 (stereo not shown) [compound 286]
7.19

Report pKi, nothing else, for this molecule: CCN1CCOc2ccc(-c3ccc(C(C(C)C)N4CCS(=O)(=O)CC4)c(=O)[nH]3)cc21 (stereo not shown) [Compound #169]
7.29

Report pKi, nothing else, for this molecule: CCN1CCOc2c(F)cc(-c3ccc(C(CC)(CC)CC4CCNC4=O)c(=O)[nH]3)cc21 (stereo not shown) [compound 17]
7.85

Report pKi, nothing else, for this molecule: CC(C)C(C(=O)NC1CCSCC1)c1ccc(-c2ccc3cccc(F)c3c2)[nH]c1=O (stereo not shown) [compound 183]
8.52

Report pKi, nothing else, for this molecule: CC(C)C(C(=O)NS(=O)(=O)c1cc(Cl)c(Cl)s1)c1ccc(-c2ccc3cccc(F)c3c2)[nH]c1=O (stereo not shown) [compound 175]
6.96

Report pKi, nothing else, for this molecule: CCn1ncc2c(F)cc(-c3ccc(C4CCCN(S(=O)(=O)C(C)C)C4)c(=O)[nH]3)cc21 (stereo not shown) [compound 211]
8.30

Report pKi, nothing else, for this molecule: CC(C)/C(=C1/OC(=O)NC1=O)c1ccc(-c2ccc3cccc(F)c3c2)[nH]c1=O [Compound #303]
7.85

Report pKi, nothing else, for this molecule: CC(C)C(Cc1ccc(-c2ccc3cccc(F)c3c2)[nH]c1=O)C(N)=O (stereo not shown) [compound 253]
7.92

Report pKi, nothing else, for this molecule: CCN1C(=O)COc2c(F)cc(-c3ccc(C(CN4CCS(=O)(=O)CC4)C(C)C)c(=O)[nH]3)cc21 (stereo not shown) [Compound #128]
6.81

Report pKi, nothing else, for this molecule: CCC(/C=C1/OC(=O)NC1=O)(CC)c1ccc(-c2ccc3c(F)cc(F)cc3c2)[nH]c1=O [compound 10]
7.55

Report pKi, nothing else, for this molecule: CCn1ncc2c(F)cc(-c3ccc(C(CC)(CC)c4nnc(C(F)(F)F)o4)c(=O)[nH]3)cc21 [Compound #45]
7.23

Report pKi, nothing else, for this molecule: CC(C)C(C(=O)NS(C)(=O)=O)c1ccc(-c2ccc3ccccc3c2)[nH]c1=O (stereo not shown) [compound 221]
7.29

----------
# target_or_test_system: EP3 receptor (Homo sapiens)
# Construct: purchased Millipore HTS092M
# Sequence (P43115 1-390): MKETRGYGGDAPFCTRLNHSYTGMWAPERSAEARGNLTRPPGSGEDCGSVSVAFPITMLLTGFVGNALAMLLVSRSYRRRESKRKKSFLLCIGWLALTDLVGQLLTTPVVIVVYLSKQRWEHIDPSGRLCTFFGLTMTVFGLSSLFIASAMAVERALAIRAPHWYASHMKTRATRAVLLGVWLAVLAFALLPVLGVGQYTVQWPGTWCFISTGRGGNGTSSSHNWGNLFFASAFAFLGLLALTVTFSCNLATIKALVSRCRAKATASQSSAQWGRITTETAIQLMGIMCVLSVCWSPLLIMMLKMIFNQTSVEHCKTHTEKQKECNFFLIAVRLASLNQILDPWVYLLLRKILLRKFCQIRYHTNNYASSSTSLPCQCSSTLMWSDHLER
# method_notes: [3H]-PGE2 binding assay (EP3 competition binding)
# particulars: read-out: [3H]-PGE2 Binding Ki
Some molecules, each annotated with its measured Ki.
Could you give me the number in nM? Just the number is fine.

Report Ki, nothing else, for this molecule: CCC(CC)(Cc1nnc[nH]1)c1ccc(-c2ccc3cc(F)cc(F)c3c2)[nH]c1=O
60

Report Ki, nothing else, for this molecule: CCn1ncc2c(F)cc(-c3ccc(C4(C(C)C)OCCNC4=O)c(=O)[nH]3)cc21 (stereo not drawn)
10

Report Ki, nothing else, for this molecule: CCn1ncc2c(F)cc(-c3ccc(C(CC4OC(=O)NC4=O)C(C)C)c(=O)[nH]3)cc21 (stereo not drawn)
32
